Target Or Test System: FGFR4 (Homo sapiens, UniProt P22455)
Construct: made in house; host or cells: E. coli (BL21-derived), T7 phage
Sequence (P22455 22-802): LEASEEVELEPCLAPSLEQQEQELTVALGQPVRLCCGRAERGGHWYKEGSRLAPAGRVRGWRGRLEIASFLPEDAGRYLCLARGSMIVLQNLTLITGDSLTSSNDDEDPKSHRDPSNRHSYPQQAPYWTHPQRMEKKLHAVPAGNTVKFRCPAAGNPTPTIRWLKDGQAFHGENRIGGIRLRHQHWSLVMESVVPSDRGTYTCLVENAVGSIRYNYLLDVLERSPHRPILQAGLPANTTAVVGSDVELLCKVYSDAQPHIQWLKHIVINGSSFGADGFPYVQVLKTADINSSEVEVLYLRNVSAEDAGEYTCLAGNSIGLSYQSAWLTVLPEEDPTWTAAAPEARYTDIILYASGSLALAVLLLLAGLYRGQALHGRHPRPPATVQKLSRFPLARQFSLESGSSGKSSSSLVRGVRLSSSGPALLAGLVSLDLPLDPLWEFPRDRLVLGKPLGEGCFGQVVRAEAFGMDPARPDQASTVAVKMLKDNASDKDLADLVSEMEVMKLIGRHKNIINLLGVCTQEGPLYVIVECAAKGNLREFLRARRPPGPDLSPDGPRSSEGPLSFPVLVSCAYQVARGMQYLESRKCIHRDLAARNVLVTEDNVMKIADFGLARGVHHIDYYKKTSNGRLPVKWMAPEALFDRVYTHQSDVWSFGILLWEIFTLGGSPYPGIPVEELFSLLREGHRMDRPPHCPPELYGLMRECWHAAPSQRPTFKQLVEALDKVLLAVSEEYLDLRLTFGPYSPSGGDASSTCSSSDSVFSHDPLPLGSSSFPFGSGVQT
Test Summary: Kinase binding assay (kinase-tagged T7 phage, affinity beads, qPCR), Kd
Experimental Setup: kinase binding assay, 11-point 3-fold dilution series; read-out: FGFR4 (Kd nM)
Parameter Measured: Kd

COc1cc2[nH]nc(-c3cnc(N4CC[C@@](C)(NCC5CC5)C4)c(C#N)c3)c2cc1O[C@H](C)c1c(Cl)cncc1Cl : 1 to 50 nM

Proceeding to the next molecule to report its Kd.
Give FGFR4 (Homo sapiens, UniProt P22455) Kd for `COc1cc2[nH]nc(-c3cnc(N4CC[C@](C)(NCC5CC5)C4)c(C#N)c3)c2cc1O[C@H](C)c1c(Cl)cncc1Cl`
1 to 50 nM

----------
Target Or Test System: FGFR4 (Homo sapiens)
Construct: made in house; host or cells: E. coli (BL21-derived), T7 phage
Test Summary: Kinase binding assay (kinase-tagged T7 phage, affinity beads, qPCR), Kd
Experimental Setup: read-out: FGFR4 (Kd nM)
Structures can show the parent of a compound that is named as a salt.
Parameter Measured: Kd

C[C@@H](Oc1ccc2[nH]nc(-c3cnc(N4CC(C)(CN5CCCC5)C4)c(F)c3)c2c1F)c1c(Cl)cncc1Cl [Example 185] : 50 to 300 nM
CCNC1(C)CN(c2ncc(-c3n[nH]c4cc(OC)c(O[C@H](C)c5c(Cl)cncc5Cl)cc34)cc2C#N)C1 [Example 341, HCl] : 1 to 50 nM
C[C@@H](Oc1ccc2[nH]nc(-c3cnc(N4CC(C)(N5CCC5)C4)c(F)c3)c2c1F)c1c(Cl)cncc1Cl [Example 184] : 50 to 300 nM
COc1cc2[nH]nc(-c3cnc(N4CC(C)(NC(=O)CN(C)C)C4)c(C#N)c3)c2cc1O[C@H](C)c1c(Cl)cncc1Cl [Example 340] : 1 to 50 nM
C[C@@H](Oc1ccc2[nH]nc(-c3ccc(N4CC(C)(N5CCP(C)(=O)CC5)C4)nc3)c2c1)c1c(Cl)cncc1Cl [Example 226] : 1 to 50 nM

What measured Kd goes with CC[C@H](C)NC1(C)CN(c2ncc(-c3n[nH]c4cc(OC)c(O[C@H](C)c5c(Cl)cncc5Cl)cc34)cc2C#N)C1 [Example 144] ?
1 to 50 nM

----------
Each item that follows carries a reported Kd.
Target Or Test System: FGFR2 (Homo sapiens, UniProt P21802)
Construct: made in house; host or cells: E. coli (BL21-derived), T7 phage
Sequence (P21802 22-821): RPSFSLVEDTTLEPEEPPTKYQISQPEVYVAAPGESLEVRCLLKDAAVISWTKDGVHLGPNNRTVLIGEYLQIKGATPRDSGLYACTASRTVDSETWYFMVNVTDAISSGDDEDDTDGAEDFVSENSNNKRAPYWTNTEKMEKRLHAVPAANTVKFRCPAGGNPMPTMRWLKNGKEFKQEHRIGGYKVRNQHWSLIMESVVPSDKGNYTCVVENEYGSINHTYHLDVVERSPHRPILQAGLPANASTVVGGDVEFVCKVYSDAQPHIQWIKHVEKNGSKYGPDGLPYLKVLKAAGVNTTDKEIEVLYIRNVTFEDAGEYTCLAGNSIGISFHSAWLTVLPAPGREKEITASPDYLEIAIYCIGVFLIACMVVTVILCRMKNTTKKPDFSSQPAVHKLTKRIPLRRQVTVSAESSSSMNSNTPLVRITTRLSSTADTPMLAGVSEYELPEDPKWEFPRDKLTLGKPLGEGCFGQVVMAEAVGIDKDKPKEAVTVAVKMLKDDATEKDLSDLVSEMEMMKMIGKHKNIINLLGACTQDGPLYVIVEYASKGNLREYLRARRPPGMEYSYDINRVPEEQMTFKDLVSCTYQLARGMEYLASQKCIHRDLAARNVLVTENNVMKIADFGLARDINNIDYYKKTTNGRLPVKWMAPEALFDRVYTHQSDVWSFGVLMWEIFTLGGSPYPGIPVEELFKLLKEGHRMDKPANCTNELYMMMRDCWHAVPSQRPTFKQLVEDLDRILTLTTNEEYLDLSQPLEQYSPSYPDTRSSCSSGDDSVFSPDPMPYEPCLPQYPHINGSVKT
Test Summary: Kinase binding assay (kinase-tagged T7 phage, affinity beads, qPCR), Kd
Experimental Setup: read-out: FGFR2 (Kd nM)

Example entries begin here.
C[C@@H](Oc1cc2c(-c3cnc(N4CC(C)(CN5CCOCC5)C4)c(C#N)c3)n[nH]c2cc1F)c1c(Cl)cncc1Cl [Example 137] : 50 to 300 nM
C[C@@H](Oc1cc2c(-c3cnc(N4CC(C)(NCC5CC5)C4)c(F)c3)n[nH]c2cc1F)c1c(Cl)cncc1Cl [Example 132] : 1 to 50 nM
C[C@@H](Oc1ccc2[nH]nc(-c3ccc(N4CC(C)(CP(C)(C)=O)C4)nc3)c2c1F)c1c(Cl)cncc1Cl [Example 187] : 300 to 1000 nM

What measured Kd goes with COc1cc2[nH]nc(-c3cnc(N4CC[C@](C)(N)C4)c(C#N)c3)c2cc1O[C@H](C)c1c(Cl)cncc1Cl [Example 367] ?
1 to 50 nM

What measured Kd goes with CNC1(C)CN(c2ncc(-c3n[nH]c4ccc(O[C@H](C)c5c(Cl)cncc5Cl)cc34)cc2F)C1 [Example 171] ?
1 to 50 nM

What measured Kd goes with C[C@@H](Oc1cc2c(-c3cnc(N4CC(C)(N5CCCC5)C4)c(C#N)c3)n[nH]c2cc1F)c1c(Cl)cncc1Cl [Example 135] ?
1 to 50 nM

What measured Kd goes with COc1cc2[nH]nc(-c3cnc(N4CC(C)(N)C4)c(C#N)c3)c2cc1O[C@H](C)c1c(Cl)cncc1Cl [Example 143] ?
1 to 50 nM
